molecular target: recombinant human TFPI (tissue factor pathway inhibitor) (human, UniProt P10646 29-304); assay: cell-based or functional assay
measuredProperty: FXa assay % of FXa alone, 2.5 nM Ab, 10 nM TFPI

# binder, experimentalValue
data = [
    ("clone 7 (antibody, V domains shown) VH: EVQLVESGGGLVKPGGSLRLSCAASGFTFSSYAMNWVRQAPGKGLEWVGTITTGGSYTYYADSVDGRFTISRDNAKNSLYLQMNSLRAEDTAVYYCARQDGNFLMDYWGQGTLVTVSS VL: DVVMTQTPLSLPVTLGQPASISCKSSPSLLDVDGKTYLNWLQQRPGQSPKRLIYLVSKLDSGVPDRFTGSGSGTDFTLKISRVEAEDVGVYYCWQGTHFPFTFGQGTKVEIKR", "8.9%"),
    ("clone 2 (antibody, V domains shown) VH: EVQLVESGGGLVKPGGSLRLSCAASGFTFSSYAMNWVRQAPGKGLEWVSTITTGGSYTYYADSVEGRFTISRDNAKNSLYLQMNSLRAEDTAVYYCARQDGNFLMDYWGQGTLVTVSS VL: DVVMTQTPLSLPVTLGQPASISCKSSPSLLDIDGKTYLNWLQQRPGQSPKRLIYLVSKLDSGVPDRFTGSGSGTDFTLKISRVEAEDVGVYYCWQGTHFPFTFGQGTKVEIKR", "8.2%"),
    ("clone 8 (antibody, V domains shown) VH: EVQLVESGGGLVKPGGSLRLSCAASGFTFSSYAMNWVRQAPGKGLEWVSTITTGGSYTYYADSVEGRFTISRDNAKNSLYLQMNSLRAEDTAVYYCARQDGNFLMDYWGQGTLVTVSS VL: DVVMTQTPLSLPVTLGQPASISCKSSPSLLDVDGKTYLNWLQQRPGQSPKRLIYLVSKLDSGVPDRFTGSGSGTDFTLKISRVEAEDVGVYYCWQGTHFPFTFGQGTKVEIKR", "7.1%"),
]
